- Test system: A498 renal
- test-name: NCI tumour cell line growth inhibition, 48 h
observable: GI50

// CC/C=C\C[C@H](F)C/C=C1/C(=O)C=C[C@@H]1C/C=C\CCCC(=O)OC : GI50 value = 9.41 µM

// CC(=O)O[C@H]([C@H](OC(C)=O)[C@H](C)OC(C)=O)[C@@H](/C=C/[C@@H]1CC=CC(=O)O1)OC(C)=O : GI50 value = 50.2 µM

// CC1CCN(Cc2ccc(NC(=O)c3cc4ccc5cccnc5c4[nH]3)cc2)CC1 : GI50 value = 2.42 µM

// N#Cc1c(NCc2ccccc2)nc(NCc2ccccc2)c(C#N)c1-c1ccc(O)cc1 : GI50 value = 24.9 µM

// CN(CCCCCl)P(=O)(OCCS(=O)(=O)CC(NC(=O)CCC(N)C(=O)O)C(=O)NC(C(=O)O)c1ccccc1)OCC1OC(n2ccc(N)nc2=O)C(O)C1O (stereo unspecified) : GI50 value = > 55.1 µM

// O=C(Nc1ccc(Cc2ccccc2)cc1)Nc1nn(C(=O)Nc2ccc(Cc3ccccc3)cc2)c2ccccc12 : GI50 value = 82.4 µM

// O=C1/C(=C/c2ccccc2)CN(C(=O)C(Cl)Cl)C/C1=C\c1ccccc1 : GI50 value = 1.48 µM

// CCCCCCCCCCCCCCCCCc1nccn1CCOCCO : GI50 value = 4.82 µg/mL

// CCCCN1CCCC[C@@H]1C(=O)N[C@H](C(=O)N(C)[C@H](C[C@@H](OC(C)=O)c1nc(C(=O)NC2CCC(C(=O)OC)CC2)cs1)C(C)C)C(C)C (stereo partly specified) : GI50 value = 6.35 µM

// COc1cc(OC)cc(-c2ccc(-c3ccc(C(=N)N)cn3)o2)c1 : GI50 value = 1.22 µM

// CCCCCCCCCCCCCCCC1=NCCN1 : GI50 value = 2.14 µM

// CSCS(=O)C[C@H](CO)NC(=O)/C=C/c1c(C)[nH]c(=O)[nH]c1=O (stereo partly specified) : GI50 value = 0.434 µM

// C=C(CN1CCN(c2ccc(C(F)(F)F)cc2)CC1)c1ccc(C(=O)Nc2ccccc2N)cc1 : GI50 value = 7.67 µM

// COC(=O)c1ccc2c(c1)C(=O)c1c-2n(CCCCl)c(=O)c2cc([N+](=O)[O-])ccc12 : GI50 value = > 100 µM

// O=C(CCl)NCCNc1nccc(Nc2ccc(S(=O)(=O)Nc3ccccn3)cc2)n1 : GI50 value = 3.67 µM

// CC1=CC(C)=NN=C(N)N1S(=O)(=O)c1cc(C)c(Cl)cc1SCc1ccccc1 : GI50 value = > 100 µM
